Assay: AUC (0 to infinity) in Fischer rat at 10 mg/kg, po
Format: ADME, organism-based
Set-up: time infinity, dose 10 mg/kg, route oral
Conditions: plasma
metricName: AUC(0-inf) (ng·h/mL)
Give bare numbers, in ng·h/mL.

Asked: Any idea what its AUC(0-inf) is? The compound is Cl.O=C(O)c1ccc(C[C@H]2CC[C@H]3CN[C@H](C(=O)O)C[C@H]3C2)cc1
Given back: 1510
